Biological target: UniProt P34998
Sequence (P34998 whole entry): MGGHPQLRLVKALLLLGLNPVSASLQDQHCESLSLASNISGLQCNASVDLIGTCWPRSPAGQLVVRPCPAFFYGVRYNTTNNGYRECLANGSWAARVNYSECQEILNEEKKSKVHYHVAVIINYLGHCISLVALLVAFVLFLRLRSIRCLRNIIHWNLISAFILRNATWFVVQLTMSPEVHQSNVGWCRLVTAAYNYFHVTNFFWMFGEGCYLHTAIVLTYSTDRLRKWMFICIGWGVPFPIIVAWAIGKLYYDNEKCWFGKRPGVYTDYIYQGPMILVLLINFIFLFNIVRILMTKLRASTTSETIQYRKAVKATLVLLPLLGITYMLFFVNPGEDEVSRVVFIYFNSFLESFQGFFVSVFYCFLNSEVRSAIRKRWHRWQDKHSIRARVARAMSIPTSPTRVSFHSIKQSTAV
Assay: Antagonist activity at human recombinant CRF1 receptor
Format: functional
outcome.measure: Ki (nM)

Reference set (3 entries):
COc1ccc(-c2c(C)nn3c(NCc4nc(C)no4)cc(C)nc23)c(C)c1; 63.1
COc1ccc(-c2c(C)nn3c(NC(C)Cc4nnc(C)o4)cc(C)nc23)c(C)c1 (configuration not stated); 251
CCC(Nc1cc(C)nc2c(-c3ccc(OC)cc3OC)c(C)nn12)c1nc(C)no1 (configuration not stated); 50.1

[a] COc1ccc(-c2c(C)nn3c(NC(C)Cc4nc(C)no4)cc(C)nc23)c(C)c1 (configuration not stated)
[b] CCN(Cc1nc(C)no1)c1cc(C)nc2c(-c3ccc(OC)cc3C)c(C)nn12
[c] COc1ccc(-c2c(C)nn3c(NC(C)Cc4noc(C)n4)cc(C)nc23)c(C)c1 (configuration not stated)
Asked: Sort these molecules on Ki so the largest reading comes first. # list labels per requested ordering
Given back: c, a, b
(c: 79.4 nM, a: 31.6 nM, b: 5.01 nM)
